Each entry below lists one item and its recorded TGI value.
Test system: SK-MEL-28 melanoma
assay explanation: NCI tumour cell line growth inhibition, 48 h

Known results for molecules:
In [3]: df
Out[3]:
                                   molecule  assay_value
0  C=C1C(=O)OC2/C=C(/C)C(OC(C)=O)C/C=C(\C)C(OC(=O)C3(C)OC3C)C(O)C12 (stereo not given)     > 100 µM
1  O=C1Cc2cc(C(=O)NC3C[C@H]4CC[C@@H](C3)N4S(=O)(=O)CC3CCN(CCCC(F)(F)F)CC3)c(Cl)cc2N1 (stereo not given in full)     > 100 µM
2  COc1nnc2ccc(N3CCC(c4ccc(OCCN5CCN(C)C(=O)[C@H]5C)cc4)CC3)nn12     > 100 µM
3  COc1ccc(/C=C/C2=NN(c3cccc(S(=O)(=O)O)c3)C3(C2)SCC(=O)N3c2nc3ccccc3s2)cc1 (stereo not given)     > 100 µM

Proceed to the following item.
## Task Enter reported TGI observed with SK-MEL-28 melanoma for COc1cccc(/C=C2\COc3ccc(-c4ccccc4)cc3C2=O)c1
## Result 3.62 µM

====

Each entry below lists one item and its recorded log10(TGI) value.
System: HT29 colon
assay explanation: NCI tumour cell line growth inhibition, 48 h
On a log10 scale: recorded TGI, unit µM.

compound	assay value
CN1CSC(=S)N(Cc2ccccc2)C1	1.06
C/C1=C\C=C(\C(C)C)CC/C(C(=O)O)=C\CC/C(C)=C/CC1	2.00
COC(=O)CSSCc1ccc([N+](=O)[O-])cc1	1.78
COc1ccc(N=N/C(C(=O)C(F)(F)F)=C(\O)c2ccc(Cl)cc2)cc1	1.24

Proceed to the following item.
## Task Enter reported log10(TGI) observed with HT29 colon for c1ccc2c3c([nH]c2c1)C(c1ccc(C2NCCc4c2[nH]c2ccccc42)cc1)NCC3 (stereo not given)
## Result -0.13

====

System: OVCAR-4 ovarian
assay explanation: NCI tumour cell line growth inhibition, 48 h; in the data active means GI50 below about 0.43 µM; inactive means the rest
Pick one: active, inactive

Solved entries:
                               entry_smiles  category
0  CC[n+]1c(/C=C/C=C2\N(C)c3ccccc3C2(C)C)sc2ccccc21  inactive
1  COc1ccc(N(C)c2nc(N)nc3sc4c(c23)CCCC4)cc1    active

Alright, here's another compound for you.
## Task Would you mind telling me which call this test gave CCCCCCC[CH2][Sn]1([CH2]CCCCCCC)[O]C(=O)c2cccnc2[O]1 ?
## Result inactive

====

Each entry below lists one item and its recorded TGI value.
Test system: TK-10 renal
assay explanation: NCI tumour cell line growth inhibition, 48 h

molecule	TGI
CO[C@H]1C[C@@H]2CC[C@@H](C)[C@@](O)(O2)C(=O)C(=O)N2CCCC[C@H]2C(=O)O[C@H]([C@H](C)C[C@@H]2CC[C@@H](OCCO)[C@H](OC)C2)CC(=O)[C@H](C)C=C(C)[C@@H](O)[C@@H](OC)C(=O)[C@H](C)C[C@H](C)/C=C/C=C/C=C1C	19.1 µM
Brc1ccc2ns[s+]c2c1	> 100 µM
CC(=O)NNc1nc(C)c(C(=O)NNC(=O)C(=O)Nc2ccc(Cl)cc2Cl)s1	> 100 µM
Cc1nc2c(=S)n(C)ncc2[nH]1	> 100 µM
COc1ccc(/C=C/C(=O)c2sc(-n3nc(-c4ccccc4)cc3-c3ccccc3)nc2C)cc1	> 100 µM
Cc1ccc(S(=O)(=O)N/N=C(/c2nc3ccc([N+](=O)[O-])cc3[nH]c2=O)C(O)c2ccc(C(O)/C(=N\NS(=O)(=O)c3ccc(C)cc3)c3nc4ccc([N+](=O)[O-])cc4[nH]c3=O)cc2)cc1 (centres undefined)	> 100 µM

Proceed to the following item.
## Task Could you share which TGI value was measured for CCn1c(SCC(=O)NNC(=S)NC)nc2ccccc2c1=O ?
## Result > 100 µM

====

Test system: ACHN renal
assay explanation: NCI tumour cell line growth inhibition, 48 h
Each entry below lists one item and its recorded TGI value.
Numbers only; they are read as µM.

Known results for compounds:
>>> print(df.to_string())
                                   compound  assay_value
0  Cn1cc(C2=C(c3cn(CCCCCSC(=N)N)c4ccccc34)C(=O)NC2=O)c2ccccc21         6.94
1  C[C@H](C/C=C/C(C)(C)O)[C@H]1CC[C@@]2(C)[C@@H]3CC[C@H]4C(C)(C)[C@@H](O)CC[C@@]45C[C@@]35CC[C@]12C         18.9
2  c1ccc2c3c([nH]c2c1)C(c1ccc(C2NCCc4c2[nH]c2ccccc42)cc1)NCC3 (stereo not given)            2
3         COC(=O)CSSCc1ccc([N+](=O)[O-])cc1         36.2

Proceed to the following item.
## Task Could you share which TGI value was measured for CCOC(=O)N(c1ccccc1)N(CC)C(=O)/C(C)=N/Nc1ccc([N+](=O)[O-])cc1 ?
## Result 40.9

====

Tested on: SK-MEL-5 melanoma
assay explanation: NCI tumour cell line growth inhibition, 48 h
property: TGI

Known results for compounds:
>>> df
                                   compound  property  assay_value
0  Cc1cc(N2CCN(C)CC2)n2nc(-c3ccc(Cl)cc3)nc2n1       TGI     > 100 µM
1  Cc1ccc(NC(=O)C(=O)CC(=O)c2sc(Nc3c(C)cccc3C)nc2C)cc1C       TGI     > 100 µM
2  CC1(C)CC(=O)C2=C(C1)OC1=C(CC(C)(C)CC1=O)C2c1ccccc1[N+](=O)[O-] (stereo not given)       TGI     > 100 µM

## Task Could you share which TGI value was measured for CCc1nc2ccc(NCCN(C)C)c3c(=O)c4ccccc4n1c23 ?
## Result 2.32 µM

## Task Could you share which TGI value was measured for O=C1c2cn[nH]c2C(c2ccccc2)N1c1ccccc1 (stereo not given) ?
## Result > 10 µM

====

Each entry below lists one item and its recorded GI50 value.
System: LOX IMVI melanoma
assay explanation: NCI tumour cell line growth inhibition, 48 h

>>> df
                                   compound  property  assay_value
0  CCN1CCN(C(=O)[C@]23CCC(C)(C)C[C@@H]2C2=CC[C@@H]4[C@@]5(C)C/C(=C/c6ccncc6)C(=O)C(C)(C)[C@@H]5CC[C@@]4(C)[C@]2(C)CC3)CC1      GI50       1.4 µM
1  Cn1cc(C2=C(c3cn(CCCCCSC(=N)N)c4ccccc34)C(=O)NC2=O)c2ccccc21      GI50      2.92 µM
2  CCCCCCC[CH2][Sn]1([CH2]CCCCCCC)[O]C(=O)c2cccnc2[O]1      GI50     > 100 µM
3  COc1cc2c(=O)[nH]c3cc([N+](=O)[O-])ccc3c2cc1[N+](=O)[O-]      GI50      3.51 µM
4  N#CC1c2ccccc2C=CN1C(=O)N(c1ccccc1)c1ccccc1 (configuration not stated)      GI50      2.04 µM

## Task Could you share which GI50 value was measured for O=[N+]([O-])c1cccc(C2CC(c3ccccc3)=Nc3ccccc3S2)c1 (configuration not stated) ?
## Result 3.02 µM

## Task Could you share which GI50 value was measured for Cc1nc2ccccc2c(/C=C/c2ccc(Cl)cc2)c1C(=O)/C=C/c1ccc(Cl)cc1 ?
## Result 1.22 µM

====

Test system: IGROV1 ovarian
assay explanation: NCI tumour cell line growth inhibition, 48 h
Each entry below lists one item and its recorded GI50 value.

Known results for molecules:
>>> df
                                   molecule  assay_value
0  COc1ccc(/C(C#N)=C2C=C/C(=N/O)c3ccccc3\2)cc1     0.523 µM
1  CCCCCCCCCCCCCC[C@@H](O)[C@H]1CC[C@H]([C@H]2CC[C@H]([C@H](O)CCCCCC[C@@H](O)CC3=C[C@H](C)OC3=O)O2)O1      2.61 µM
2  Cn1cc(C2=C(c3cn(CCCCCSC(=N)N)c4ccccc34)C(=O)NC2=O)c2ccccc21      3.51 µM
3  O=C1Cc2cc(C(=O)NC3C[C@H]4CC[C@@H](C3)N4S(=O)(=O)CC3CCN(CCCC(F)(F)F)CC3)c(Cl)cc2N1 (some centres undefined)     > 100 µM
4  COC(=O)c1ccc(NC(=O)Oc2ccc(N(CCCl)CCCl)cc2)cc1      11.8 µM
5  CC1=C(Nc2ccc(N3CCN(C)CC3)cc2)C(=O)c2cncnc2C1=O      2.24 µM

## Task Could you share which GI50 value was measured for CCCCCCC[CH2][Sn]1([CH2]CCCCCCC)[O]C(=O)c2cccnc2[O]1 ?
## Result > 100 µM

## Task Could you share which GI50 value was measured for COc1cccc(/C=C2\COc3ccc(-c4ccccc4)cc3C2=O)c1 ?
## Result 3.12 µM

## Task Could you share which GI50 value was measured for O=C1NC(=NCCCc2ccccc2)S/C1=C\c1ccc2ncccc2c1 ?
## Result 5.49 µM

## Task Could you share which GI50 value was measured for CCn1c(-c2nonc2N)nc2cncc(C(=O)N3CC[C@H](N)C3)c21 ?
## Result > 25 µM

## Task Could you share which GI50 value was measured for CC[C@H](C)[C@H](NC(=O)CN(C)C)C(=O)N(C)[C@H](C[C@@H](OC(C)=O)c1nc(C(=O)NC23CC(C(=O)OC)(C2)C3)cs1)C(C)C ?
## Result 0.412 µM

## Task Could you share which GI50 value was measured for COc1ccc2c(OCc3nnc4ccc(-c5ccccc5)nn34)ccnc2c1 ?
## Result > 100 µM

## Task Could you share which GI50 value was measured for N#CC1c2ccccc2C=CN1C(=O)N(c1ccccc1)c1ccccc1 (centres undefined) ?
## Result 1.76 µM

## Task Could you share which GI50 value was measured for CN1CSC(=S)N(Cc2ccccc2)C1 ?
## Result 10.3 µM

Entry source: PubChem BioAssay (NCI)
